Attribution: ChEMBL document CHEMBL1961873

TEST_TARGET: Serine/threonine-protein kinase 3 (Homo sapiens);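 further: each value is the mean inhibition of MST2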
ASSAY_CONTEXT: at 1 µM
MEASURE: inhibition

For each of the items listed, what is its inhibition?
1. Nc1nccc(-c2c(-c3ccc(F)cc3)nn3cc(C(F)(F)F)ccc23)n1
2. Cc1cc(Cl)cc2c1NC(=O)C2=NNc1ccc(S(N)(=O)=O)cc1
3. COc1cccc(-n2ncc3c(N/N=C/c4ccc(C)cc4)ncnc32)c1
4. OCc1ccc(-c2nc(-c3ccccn3)c(-c3ccc4c(c3)OCO4)[nH]2)cc1

1. -0.81%
2. 6.48%
3. 11.4%
4. 4.84%

* * *

TEST_TARGET: Mitogen-activated protein kinase kinase kinase kinase 4 (Homo sapiens);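 further: reported figure is an averaged inhibition value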
ASSAY_CONTEXT: at 1 µM
MEASURE: inhibition (%)
Give bare numbers, in %.

>>> df
                            chemical_string     measure  measurement
0  NS(=O)(=O)c1ccc(N/N=C2\C(=O)Nc3ccc(Cl)cc32)cc1  inhibition         75.5
1  COc1cccc(-n2ncc3c(N/N=C/c4ccc(S(C)(=O)=O)cc4)ncnc32)c1  inhibition         59.4
2  CN(c1ccc(NC(=O)Nc2ccc(OC(F)(F)F)cc2)cc1)c1ccnc(Nc2cccc(S(N)(=O)=O)c2)n1  inhibition         85.1
3  CC(C)c1ccc(Nc2nccc(-c3cnn4ncccc34)n2)cc1  inhibition         18.7
4     COc1cc(/C=N/Nc2ncnc3c2cnn3C(C)C)ccc1O  inhibition         21.4

// each listed compound needs a value for inhibition
1. N#Cc1c(NC(=O)c2ccccc2F)sc2c1CCCC2
2. NS(=O)(=O)c1ccc(NC=C2C(=O)Nc3ccc4ncsc4c32)cc1
3. c1ccc(Cc2nc3ccc(Nc4ncnc5ccccc45)cc3[nH]2)cc1

1. -0.82
2. 79
3. 10

Go through the list and state inhibition for each entry.
1. Oc1cccc(-c2nc(-c3ccccc3)[nH]c2-c2ccncc2)c1
2. COc1cccc(-n2ncc3c(N/N=C/c4ccc(C)cc4)ncnc32)c1
3. CCn1c(-c2nonc2N)nc2c(C#CC(C)(C)O)nc(OCCNC)cc21
4. C[C@@H](Oc1cc(-n2cnc3ccc(OCC4CCN(C)CC4)cc32)sc1C(N)=O)c1ccccc1C(F)(F)F
5. NS(=O)(=O)c1cccc(-c2cc3ccncc3cc2OCc2ccccc2)c1
6. NS(=O)(=O)c1ccc(Nc2cc(-c3cccc(O)c3)n[nH]2)cc1

11.6
21
6.25
1.19
11.1
17.6

Need inhibition for each of these compounds.
1. N#Cc1cccc(Nc2nccc(-c3cnn4ncccc34)n2)c1
2. COc1ccc2ncnc(Nc3ccc(OCc4ccccc4)cc3)c2c1
3. CCS(=O)(=O)c1ccc(OC)c(Nc2nccc(N(C)c3ccc4c(C)n[nH]c4c3)n2)c1
4. NS(=O)(=O)c1ccc(-c2cc3ccncc3cc2OCc2ccccc2)cc1
5. CCOc1nccc2c1nc(-c1nonc1N)n2CC
6. Cc1cc(-c2ccccn2)cc(C)c1/C=C/c1cncc(-c2nn[nH]n2)c1

1: 64.3; 2: 7.18; 3: 15.6; 4: 6.71; 5: 14.3; 6: 13.5

For every record below, what is its inhibition?
1. O=C1Nc2ccc(-c3cccnc3)cc2C1=Cc1cc(Br)c(O)c(Br)c1
2. CS(=O)(=O)Nc1cccc(-c2ccc3c(NC(=O)C4CC4)n[nH]c3c2)c1
3. ON=C1CCc2cc(-c3nc(C4CCNCC4)[nH]c3-c3ccncc3)ccc21
4. COC(=O)Nc1nc2cc(Oc3ccc(NC(=O)Nc4cccc(Br)c4)cc3)ccc2[nH]1

91.6
6.35
21.5
5.51
